assayed-system: Adenosine receptor A1 (Homo sapiens, UniProt P30542)
Sequence (P30542 whole entry): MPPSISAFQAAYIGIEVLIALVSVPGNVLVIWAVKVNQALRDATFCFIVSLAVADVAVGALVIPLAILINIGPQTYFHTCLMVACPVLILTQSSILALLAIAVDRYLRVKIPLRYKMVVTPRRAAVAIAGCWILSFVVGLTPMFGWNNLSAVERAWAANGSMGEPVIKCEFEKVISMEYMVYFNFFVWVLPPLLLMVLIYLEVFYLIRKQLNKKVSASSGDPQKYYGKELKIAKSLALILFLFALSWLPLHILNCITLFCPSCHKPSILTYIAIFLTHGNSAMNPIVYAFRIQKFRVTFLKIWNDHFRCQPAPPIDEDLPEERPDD

# compound, unit-descriptor, qualifier-sign, Ki
records = [
    ("O=C(Nc1cc2ccccc2oc1=O)c1ccccc1 [N-(2-oxidanylidenechromen-3-yl)benzamide]", "µM", ">", 100),
    ("O=C(Nc1cc2ccccc2oc1=O)c1cccs1", "µM", "=", 16.2),
    ("C=CC(=O)Nc1cc2ccccc2oc1=O [N-(Coumarin-3-yl)acrylamide (2)]", "µM", "=", 8.95),
    ("O=C(Nc1cc2ccccc2oc1=O)c1ccco1 [N-(Coumarin-3-yl)furan-2-carboxamide (8)]", "µM", "=", 5.18),
    ("O=C(Nc1c(O)c2ccccc2oc1=O)c1ccccc1 [N-(4-hydroxycoumarin-3-yl)benzamide (5)]", "µM", ">", 100),
    ("C=CC(=O)Nc1c(O)c2ccccc2oc1=O [N-(4-Hydroxycoumarin-3-yl)acrylamide (3)]", "µM", ">", 100),
    ("O=C(Nc1cc2ccccc2oc1=O)c1cccnc1 [N-(coumarin-3-yl)nicotinamide (6)]", "µM", ">", 100),
]

Taken from BindingDB's records for doi:10.1016/j.bioorg.2015.05.008.
